Reference source: ChEMBL document CHEMBL4513216

assay.remarks: Toxicity liver stage against HepG2, at 10uM
Type: cell-based
Parameters: test concentration 10 uM, cell line HepG2-A16-CD81EGFP
stated.conditions: human, HepG2-A16-CD81EGFP cells; read-out: INHIBITION
Entries and their cytotoxicity at 10 µM
Report only the number, with the unit % understood.

Cc1ccc(S(=O)(=O)N2CCOCC2C(N)=O)c(F)c1 (stereo unspecified) | -5.22
NC(=O)c1ccc(OCC(=O)NS(=O)(=O)c2ccc3c(c2)CCC3)cc1 | -8.89
O=C(NCCn1ccc(-c2ccncc2)n1)c1ccncc1 | -19.1
CN(CCc1ccccn1)c1cnn(C)c(=O)c1Br | -5.03
CCOc1ccccc1N1CCN(CC2(O)CCCNC2)CC1 (stereo unspecified) | -2.36

GET /value?item= O=C1CCC2(CCN(CC[C@H](O)c3ccccc3)CC2)CN1CCO &field=cytotoxicity at 10 µM returns -4

The value of cytotoxicity at 10 µM measured for the compound Cc1nc(-c2ccc(Cl)s2)sc1C(=O)N(C)CC(N)=O turned out to be -7.08

Measured cytotoxicity at 10 µM, CCC(C)NC(=O)c1nn(C)c(NC(=O)c2ccccc2OC)c1F (stereo unspecified) : -6.24

So for CC1CN(C(=O)c2ccnc(OCCN(C)C)c2)c2ccccc21 (stereo unspecified) , the logged cytotoxicity at 10 µM turned out to be -0.343

compound Cc1noc(C)c1CN1CCO[C@H]2CN(Cc3cccnc3)C[C@H]21 , cytotoxicity at 10 µM observed: -2.61

// field: cytotoxicity at 10 µM; key: CC(C)CCNC(=O)c1ccc(Cl)c(NS(C)(=O)=O)c1 ; value = 2.2
